Biological target: T1, human MAdCAM (human, UniProt Q13477 19-317, limits assumed)
T1 construct: also called huMAdCAM; human MAdCAM-1
T1 sequence (looked up): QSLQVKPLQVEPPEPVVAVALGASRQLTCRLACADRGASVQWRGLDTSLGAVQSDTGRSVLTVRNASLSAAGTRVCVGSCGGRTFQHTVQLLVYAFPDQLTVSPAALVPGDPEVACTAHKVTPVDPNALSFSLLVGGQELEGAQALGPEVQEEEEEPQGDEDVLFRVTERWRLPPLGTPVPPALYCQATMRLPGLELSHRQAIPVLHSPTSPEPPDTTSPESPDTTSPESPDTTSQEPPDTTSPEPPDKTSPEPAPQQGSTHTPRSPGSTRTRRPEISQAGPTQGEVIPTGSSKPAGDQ
Assay: BLI (Octet), binder on anti-human Fc tips
experimental-readout: Kd (µM)
Enter your answer as a number in µM; do not include the unit.

Prompt: Which Kd is reported for this binder? MIAB174 (antibody, V domains shown, tested with human Fc; also called MIAB174-001) VH: EVQLLESGGGLVQPGGSLRLSCAASGFTFSDYWMHWVRQAPGKGLEWISYISGDSGYTNYADSVKGRFTISRDNSKNTLYLQMNSLRAEDTAVYYCARDRPYYYYMDVWGKGTTVTVSS VL: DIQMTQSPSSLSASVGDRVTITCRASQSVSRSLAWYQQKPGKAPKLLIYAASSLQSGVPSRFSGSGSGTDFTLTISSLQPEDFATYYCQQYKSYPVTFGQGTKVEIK
Response: 0.0218

Prompt: Please give the measured Kd for this binder: MIAB26 (antibody, V domains shown, tested with human Fc) VH: EVQLLESGGGLVQPGGSLRLSCAASGFTFDDYAMHWVRQAPGKGLEWVASITSSSAFIDYADSVKGRFTISRDNSKNTLYLQMNSLRAEDTAVYYCARERVDWNSYFDLWGQGTLVTVSS VL: EIVMTQSPATLSVSPGERATLSCRASQSVYSNLAWYQQKPGQAPRLLIYRASTRATGIPARFSGSGSGTEFTLTISSLQSEDFAVYYCQQYHIWPPTFGQGTKVEIK
Response: 0.0491

Prompt: Fill in the blank: the reported Kd of MIAB12 (antibody, V domains shown, tested with human Fc) VH: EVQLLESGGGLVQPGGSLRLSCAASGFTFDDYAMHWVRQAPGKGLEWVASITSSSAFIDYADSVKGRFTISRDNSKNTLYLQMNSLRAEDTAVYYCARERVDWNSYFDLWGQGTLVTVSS VL: EIVMTQSPATLSVSPGERATLSCRACPGISNSYLAWYQQKPGQAPRLLIYGASTRATGIPARFSGSGSGTEFTLTISSLQSEDFAVYYCQQYYTYPPTFGQGTKVEIK is ____.
Response: 0.0193
